# system under test: T1, human BCMA (soluble analyte of Examples 8 and 14) (human, UniProt Q02223 1-54, limits assumed)
# T1 sequence (looked up): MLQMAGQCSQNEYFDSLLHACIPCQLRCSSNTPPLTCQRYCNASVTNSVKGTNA
# test details: BLI competition, APRIL/TNFSF13 (competitor) on AR2G sensors, premix 710 nM antibody + 71 nM human BCMA; without antibody 0.6588 nm
recorded metric: Response (premix of antibody and BCMA on APRIL sensors) (nm)

{"binder": "Antibody 01-016 (antibody, human IgG1, kappa, L234A L235A, V domains shown, Full-length human IgG1 with L234A/L235A (pEE-HCLALA IgG1 vector) and CK light chain constant domain (pEE-CK), made in CHO-T cells; also called candidate 016) VH: EVQLVQSGGGLVQPGGSLRLSCAVSGFTFSSSVMSWVRQAPGKGFEWVSGYNGGSDRAGFADSVEGRFTISRDNAKNTLYLQMNSLKPEDTAVYYCARYIANSGTYYWDYWGQGTLVTVSS VL: QPVLTQPPSVSEAPRQRVTISCSGSSSNIGNNAVNWYQQLPGKAPKLLIFKNNQRPSGVPDRFSGSKSGTSASLVISGLQSEDEADYYCAAWDGSLNAWMFGGGTKLTVLR", "endpoint result": -0.0062}
{"binder": "Antibody 01-001 (antibody, human IgG1, kappa, L234A L235A, V domains shown, Full-length human IgG1 with L234A/L235A (pEE-HCLALA IgG1 vector) and CK light chain constant domain (pEE-CK), made in CHO-T cells; also called candidate 01) VH: EVQLVQSGGGLVQPGGSLRLSCAVSGFTLSSSAMSWVRQAPGKGFEWVSGYNGGSDRAGFADSVEGRFTISRDNAKNTLYLQMNSLKPEDTAVYYCARYIANSGTYYWDYWGQGTLVTVSS VL: QPVLTQPPSASGTPGQRVTISCSGSSSNIGSNTVNWYQQLPGTAPKLLIYNDSQRPSGVPDQFSGSKSGTSASLAISGLQSDNEADYYCAAWDGSLNVWMFGGGTKVTVLR", "endpoint result": -0.0081}
{"binder": "Antibody 01-037 (antibody, human IgG1, kappa, L234A L235A, V domains shown, Full-length human IgG1 with L234A/L235A (pEE-HCLALA IgG1 vector) and CK light chain constant domain (pEE-CK), made in CHO-T cells; also called candidate 037) VH: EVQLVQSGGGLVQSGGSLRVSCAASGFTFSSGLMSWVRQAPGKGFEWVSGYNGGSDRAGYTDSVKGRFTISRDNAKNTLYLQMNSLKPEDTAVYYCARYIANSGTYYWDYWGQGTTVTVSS VL: SYVLTQPPSASGTPGQRVTISCSGTRSNIGTNTVNWYQQLPGTAPKLLIYRNNQRPSGVPDRFSGSKSGTSASLAISGLQSEDEADYYCAVWDDRVSAWLFGGGTKLTVLR", "endpoint result": 0.0304}
{"binder": "Antibody 01-024 (antibody, human IgG1, kappa, L234A L235A, V domains shown, Full-length human IgG1 with L234A/L235A (pEE-HCLALA IgG1 vector) and CK light chain constant domain (pEE-CK), made in CHO-T cells; also called candidate 024) VH: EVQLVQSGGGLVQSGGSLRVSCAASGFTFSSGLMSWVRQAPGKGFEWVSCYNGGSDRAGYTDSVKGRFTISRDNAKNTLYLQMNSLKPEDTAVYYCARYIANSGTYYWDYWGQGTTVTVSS VL: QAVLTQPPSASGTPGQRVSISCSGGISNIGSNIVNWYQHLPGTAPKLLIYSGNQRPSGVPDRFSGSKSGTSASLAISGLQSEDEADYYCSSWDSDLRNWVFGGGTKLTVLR", "endpoint result": 0.0151}
{"binder": "Antibody 01-026 (antibody, human IgG1, kappa, L234A L235A, V domains shown, Full-length human IgG1 with L234A/L235A (pEE-HCLALA IgG1 vector) and CK light chain constant domain (pEE-CK), made in CHO-T cells; also called candidate 026) VH: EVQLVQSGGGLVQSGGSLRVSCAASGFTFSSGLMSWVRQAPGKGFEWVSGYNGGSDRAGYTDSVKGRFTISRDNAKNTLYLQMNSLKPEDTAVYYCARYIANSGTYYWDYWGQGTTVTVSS VL: QSVLTQPPSVSGAPGQRVTISCTGSSSNIGAGYDVHWYQQLPGTAPKLVIYGNTNRPSGVPDRFSGSKSGTSASLAISGLQSEDEADYYCAAWDDSLNGWVFGGGTKLTVLR", "endpoint result": 0.0111}
{"binder": "Antibody 01-006 (antibody, human IgG1, kappa, L234A L235A, V domains shown, Full-length human IgG1 with L234A/L235A (pEE-HCLALA IgG1 vector) and CK light chain constant domain (pEE-CK), made in CHO-T cells; also called candidate 06) VH: EVQLVQSGGGLVQPGGSLRLSCSASGFTFSSGLMSWVRQAPGKGFEWVSGYNGGSDRAGYTDSVKGRFTISRDNAKNTLYLQMNSLKPEDTAVYYCARYIANSGTYYWDYWGQGTLVTVSS VL: QAVLTQPPSVSGTPGQRVTISCSGSTSNIGHRTVNWYQQFPGAAPKLLIYRNNQRPSGVPARFSGSKSGTSASLAISGLQSEDEADYHCAAWDDSLTAWVFGGGTQLTVLR", "endpoint result": 0.0464}

Measured values drawn from patent US20250304707A1 for this set.
